System: HaCaT
assay.name: Induction of apoptosis in human HaCaT cells assessed as dead cells at 25 uM after 72 hrs by annexin-V/propidium iodide staining-based flow cytometric analysis (reference value: 2.8%)
Assay type: cell-based
endpoint: Activity

Study these solved cases before continuing.
compound | readout.value
CC(C)(C)C1=CC(=O)C(NCCc2ccccc2)=CC1=O | 8.3%
CC1=CCC[C@H]2[C@](C)(CC3=CC(=O)C(NCCc4ccccc4)=CC3=O)[C@@H](C)CC[C@]12C | 9.2%
CCCCCCCCNC1=CC(=O)C(C[C@]2(C)[C@@H](C)CC[C@]3(C)C(C)=CCC[C@@H]23)=CC1=O | 5.8%
CC1=CCC[C@H]2[C@](C)(CC3=CC(=O)C=CC3=O)[C@@H](C)CC[C@]12C [AVARONE] | 9.1%

Let's switch to this compound now.
"CC(C)(C)C1=CC(=O)C=CC1=O" has a reported Activity of 7.5%
